Catalogue of INS1e assay EC50 Mean pM GLP-1R readings, one per entry.
Target: T1, GLP-1R (INS1e assay) (UniProt P32301 22-463, limits assumed)
T1 sequence (looked up): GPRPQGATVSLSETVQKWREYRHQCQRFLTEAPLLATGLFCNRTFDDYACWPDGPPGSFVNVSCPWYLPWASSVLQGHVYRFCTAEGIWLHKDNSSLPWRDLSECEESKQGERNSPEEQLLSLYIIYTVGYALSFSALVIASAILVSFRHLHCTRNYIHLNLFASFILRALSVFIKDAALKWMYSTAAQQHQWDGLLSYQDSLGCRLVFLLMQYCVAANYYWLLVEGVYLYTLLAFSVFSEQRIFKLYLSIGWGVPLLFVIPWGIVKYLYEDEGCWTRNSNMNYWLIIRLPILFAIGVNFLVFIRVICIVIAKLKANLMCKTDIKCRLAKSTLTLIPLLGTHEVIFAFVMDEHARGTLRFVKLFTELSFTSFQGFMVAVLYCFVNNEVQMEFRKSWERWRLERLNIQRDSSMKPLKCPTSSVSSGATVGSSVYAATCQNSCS
Test: cell-based or functional assay
Starred links: 1 amine or outer side, 2 acyl side, 3 side chain; linkers in the order of their positions; H or OH if unused. Non-standard residues stand in square brackets, D forms with d. Groups on a side chain read outwards from the residue. Primed or numbered codes have the meaning given here. No end group written: not given here. *: point of attachment. γGlu = O=C(O)[C@H](CCC(=O)[*:2])N[*:1]; Stearoyl = CCCCCCCCCCCCCCCCCC(=O)*; αMeF = C[C@](N)(Cc1ccccc1)C(=O)O; αMeK = C[C@](N)(CCCCN)C(=O)O; Lauroyl = CCCCCCCCCCCC(=O)*; αMeS = C[C@](N)(CO)C(=O)O; PEG2′ = not defined here; Aib = CC(C)(N)C(=O)O
measuredMetric: INS1e assay EC50 Mean pM GLP-1R

- H[Aib]EGS[αMeF]TSDV[αMeS]S[αMeF]LEGEAA[αMeK]K([PEG2′-PEG2′-γGlu-Stearoyl])[αMeF]IA[αMeF]VV[αMeK]GG-NH2 [SEQ ID NO 108]: 248 pM
- H[Aib]EGS[αMeF]TSDVSK([PEG2′-PEG2′-PEG2′-Stearoyl])YLEGEAA[Aib]E[αMeF]IA[αMeF]VVEGG-NH2 [SEQ ID NO 63]: 31 pM
- H[Aib]EGS[αMeF]TSDV[αMeS]S[αMeF]LEGEAAK([PEG2′-PEG2′-γGlu-Stearoyl])E[αMeF]IAWVV[αMeK]GG-NH2 [SEQ ID NO 49]: 10000 pM
- H[Aib]EGS[αMeF]TSDV[αMeS]S[αMeF]LEGEAA[αMeK]E[αMeF]IA[αMeF]VVK([PEG2′-PEG2′-PEG2′-Lauroyl])GG-NH2 [SEQ ID NO 172]: 33.8 pM
